- Measured Target: Plasminogen (Rattus norvegicus)
- Sequence (Q01177 97-581 limits assumed): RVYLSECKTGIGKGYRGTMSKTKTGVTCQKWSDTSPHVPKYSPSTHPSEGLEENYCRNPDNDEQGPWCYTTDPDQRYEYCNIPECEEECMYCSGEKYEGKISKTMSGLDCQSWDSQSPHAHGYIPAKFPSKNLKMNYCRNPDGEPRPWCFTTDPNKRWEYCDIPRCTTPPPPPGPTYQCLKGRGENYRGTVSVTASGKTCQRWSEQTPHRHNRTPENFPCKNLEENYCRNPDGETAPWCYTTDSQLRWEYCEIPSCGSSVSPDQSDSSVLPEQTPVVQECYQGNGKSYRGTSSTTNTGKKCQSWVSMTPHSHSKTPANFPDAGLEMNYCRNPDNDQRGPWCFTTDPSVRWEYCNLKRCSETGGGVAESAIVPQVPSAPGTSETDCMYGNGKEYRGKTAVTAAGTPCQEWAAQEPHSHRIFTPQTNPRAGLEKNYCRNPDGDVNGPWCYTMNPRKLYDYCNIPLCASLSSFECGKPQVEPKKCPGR
- Sequence (Q01177 582-812 limits assumed): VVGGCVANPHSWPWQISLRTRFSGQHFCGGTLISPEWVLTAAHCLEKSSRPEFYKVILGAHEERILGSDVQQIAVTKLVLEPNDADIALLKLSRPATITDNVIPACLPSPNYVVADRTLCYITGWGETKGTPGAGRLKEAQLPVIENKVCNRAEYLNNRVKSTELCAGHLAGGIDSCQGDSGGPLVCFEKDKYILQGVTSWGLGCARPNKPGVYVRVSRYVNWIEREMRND
- Experiment: Inhibitory activity against plasmin
# maps each entry to its pIC50
Worth noting: pIC50 values are minus log10 of concentrations stated in mol/L.

Compound | Measured Number
CC(C)(C)NC(=O)N1CCN(C(=O)N2C(=O)[C@H](CC3CCNCC3)[C@H]2C(=O)O)CC1 | 6.60
O=C(O)C1[C@@H](CC2CCNCC2)C(=O)N1C(=O)N1CCN(C(=O)Cc2ccc(OCc3ccccc3)cc2)CC1 (single isomer, unassigned) | 6.42

Continue with the compound presented below.
What value of measured pIC50 is listed for O=C(O)C1[C@@H](CC2CCNCC2)C(=O)N1C(=O)N1CCN(C(=O)CCCCCc2ccccc2)CC1 (single isomer, unassigned) ?
6.77

###

- Measured Target: Tryptase (Homo sapiens, UniProt Q9BZJ3+Q15661+Q9NRR2)
- Experiment: Inhibitory activity against human tryptase
Value Type: IC50

Field: example entries. Status: answers known.
Compound | Result
O=C(O)C1[C@@H](CC2CCNCC2)C(=O)N1C(=O)N1CCN(C(=O)Cc2ccc(CCCc3ccccc3)cc2)CC1 (single isomer, unassigned) | 0.009 µM
O=C(O)C1[C@@H](CC2CCNCC2)C(=O)N1C(=O)N1CCN(C(=O)c2ccccc2-c2ccccc2)CC1 (single isomer, unassigned) | 0.042 µM
O=C(O)C1[C@@H](CC2CCNCC2)C(=O)N1C(=O)N1CCN(C(=O)c2ccc3ccccc3n2)CC1 (single isomer, unassigned) | 0.11 µM
O=C(O)C1[C@@H](CC2CCNCC2)C(=O)N1C(=O)N1CCN(C(=O)c2ccccc2CCc2ccccc2)CC1 (single isomer, unassigned) | 0.14 µM
O=C(O)C1[C@@H](CC2CCNCC2)C(=O)N1C(=O)N1CCN(C(=O)Cc2ccc3ccccc3c2)CC1 (single isomer, unassigned) | 0.07 µM
O=C(O)C1[C@@H](CC2CCNCC2)C(=O)N1C(=O)N1CCN(C(=O)Cc2ccc3c(c2)CCCC3)CC1 (single isomer, unassigned) | 0.03 µM
O=C(O)C1[C@@H](CC2CCNCC2)C(=O)N1C(=O)N1CCN(C(=O)CCCCCc2cccc3ccccc23)CC1 (single isomer, unassigned) | 0.001 µM
O=C(O)C1[C@@H](CC2CCNCC2)C(=O)N1C(=O)N1CCN(C(=O)CCCc2ccc3ccccc3c2)CC1 (single isomer, unassigned) | 0.01 µM
O=C(O)C1[C@@H](CC2CCNCC2)C(=O)N1C(=O)N1CCN(C(=O)c2ccc(OCc3ccccc3)cc2)CC1 (single isomer, unassigned) | 0.004 µM
CCCCCCc1ccc(-c2ccc(C(=O)N3CCN(C(=O)N4C(=O)[C@H](CC5CCNCC5)C4C(=O)O)CC3)cc2)cc1 (single isomer, unassigned) | 0.12 µM

What value of measured IC50 is listed for CC(=O)Nc1ccsc1C(=O)N1CCN(C(=O)N2C(=O)[C@H](CC3CCNCC3)C2C(=O)O)CC1 (single isomer, unassigned) ?
0.19 µM

What value of measured IC50 is listed for O=C(O)C1[C@@H](CC2CCNCC2)C(=O)N1C(=O)N1CCN(C(=O)Cc2ccc(Oc3ccccc3)cc2)CC1 (single isomer, unassigned) ?
0.005 µM

What value of measured IC50 is listed for O=C(O)C1[C@@H](CC2CCNCC2)C(=O)N1C(=O)N1CCN(C(=O)c2ccccc2Oc2ccccc2)CC1 (single isomer, unassigned) ?
0.12 µM

###

- Measured Target: Serine protease 1 (Bos taurus, UniProt P00760)
pIC50: −log10 of the molar value.
Note to self: values exactly at 6 are yes. So pIC50 at or above 6 is yes, below is no.

Study these solved cases before continuing.
Compound | Discrete Label
O=C(O)C1[C@@H](CC2CCNCC2)C(=O)N1C(=O)N1CCN(C(=O)CCCCCc2ccccc2)CC1 (single isomer, unassigned) | yes
O=C(O)C1[C@@H](CC2CCNCC2)C(=O)N1C(=O)N1CCN(C(=O)CCCc2nc(-c3ccc(Cl)cc3)no2)CC1 (single isomer, unassigned) | yes
O=C(O)C1[C@@H](CC2CCNCC2)C(=O)N1C(=O)N1CCN(C(=O)CCCCCc2ccc3ccccc3c2)CC1 (single isomer, unassigned) | yes

Now look at this entry.
Hi team, for O=C(CCC(=O)N1CCN(C(=O)N2C(=O)[C@H](CC3CCNCC3)C2C(=O)O)CC1)NCCc1ccccc1 (single isomer, unassigned) , is the recorded pIC50 at or above 6?
no

###

- Measured Target: Tissue-type plasminogen activator (Homo sapiens, UniProt P00750)
- Sequence (P00750 whole entry): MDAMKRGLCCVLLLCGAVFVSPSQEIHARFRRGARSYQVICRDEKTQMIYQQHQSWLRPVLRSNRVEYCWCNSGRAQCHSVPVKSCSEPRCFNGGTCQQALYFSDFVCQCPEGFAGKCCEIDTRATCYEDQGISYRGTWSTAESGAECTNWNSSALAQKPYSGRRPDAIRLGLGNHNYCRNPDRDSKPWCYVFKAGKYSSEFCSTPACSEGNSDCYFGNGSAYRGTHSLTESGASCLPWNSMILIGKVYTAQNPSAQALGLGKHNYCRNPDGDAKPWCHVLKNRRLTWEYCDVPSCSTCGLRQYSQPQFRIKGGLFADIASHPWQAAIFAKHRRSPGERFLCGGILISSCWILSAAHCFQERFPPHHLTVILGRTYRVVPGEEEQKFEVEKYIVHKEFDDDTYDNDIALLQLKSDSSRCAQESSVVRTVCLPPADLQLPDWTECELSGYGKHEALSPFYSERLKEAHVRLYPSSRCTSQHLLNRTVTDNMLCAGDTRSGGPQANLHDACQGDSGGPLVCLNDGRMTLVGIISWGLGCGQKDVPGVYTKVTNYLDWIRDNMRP
# maps each entry to its IC50

Compound | IC50
O=C(O)C1[C@@H](CC2CCNCC2)C(=O)N1C(=O)N1CCN(C(=O)CCCCCc2ccccc2)CC1 (single isomer, unassigned) | > 33 µM
CC(C)(C)NC(=O)N1CCN(C(=O)N2C(=O)[C@H](CC3CCNCC3)[C@H]2C(=O)O)CC1 | > 1.1 µM
CC(C)(C)NC(=O)N1CCN(C(=O)N2C(=O)[C@H](CCCN=C(N)N)C2C(=O)O)CC1 (single isomer, unassigned) | > 8.25 µM

Give Tissue-type plasminogen activator (Homo sapiens, UniProt P00750) IC50 for O=C(O)C1[C@@H](CC2CCNCC2)C(=O)N1C(=O)N1CCN(C(=O)Cc2ccc(OCc3ccccc3)cc2)CC1 (single isomer, unassigned)
> 33 µM

###

Heads up, these molecules all have pIC50 values measured for Serine protease 1 (Homo sapiens).
Worth noting: pIC50 values are minus log10 of concentrations stated in mol/L.

Field: example entries. Status: answers known.
Molecule | pIC50
O=C(O)C1[C@@H](CC2CCNCC2)C(=O)N1C(=O)N1CCN(C(=O)Cc2ccc(OCc3ccccc3)cc2)CC1 (single isomer, unassigned) | 6.36
O=C(O)C1[C@@H](CC2CCNCC2)C(=O)N1C(=O)N1CCN(C(=O)CCCCCc2ccccc2)CC1 (single isomer, unassigned) | 6.51

Continue with the molecule presented below.
Give Serine protease 1 (Homo sapiens) pIC50 for "CC(C)(C)NC(=O)N1CCN(C(=O)N2C(=O)[C@H](CC3CCNCC3)[C@H]2C(=O)O)CC1"
7.21

###

- Measured Target: Tryptase (Homo sapiens, UniProt Q9BZJ3+Q15661+Q9NRR2)
- Experiment: Inhibitory activity against human tryptase
Value Type: IC50 (nM)
Report the figure in nM without appending any unit label.

Field: example entries. Status: answers known.
Compound | IC50 [nM]
CC(C)(C)NC(=O)N1CCN(C(=O)N2C(=O)[C@H](CC3CCNCC3)[C@H]2C(=O)O)CC1 | 30
O=C(O)C1[C@@H](CC2CCNCC2)C(=O)N1C(=O)N1CCN(C(=O)CCCCCc2ccc3ccccc3c2)CC1 (single isomer, unassigned) | 1
O=C(O)C1[C@@H](CC2CCNCC2)C(=O)N1C(=O)N1CCN(C(=O)CCCCCCc2cccc3ccccc23)CC1 (single isomer, unassigned) | 1
O=C1CC[C@@H](C(=O)N2CCN(C(=O)N3C(=O)[C@H](CC4CCNCC4)C3C(=O)O)CC2)N1 (single isomer, unassigned) | 170

What value of measured IC50 is listed for O=C(O)C1[C@@H](CC2CCNCC2)C(=O)N1C(=O)N1CCN(C(=O)CCCCc2ccccc2)CC1 (single isomer, unassigned) ?
6

What value of measured IC50 is listed for O=C(O)C1[C@@H](CC2CCNCC2)C(=O)N1C(=O)N1CCN(C(=O)c2ccc(CCCc3ccccc3)cc2)CC1 (single isomer, unassigned) ?
6

###

- Measured Target: Serine protease 1 (Bos taurus) (UniProt P00760)
- Sequence (P00760 whole entry): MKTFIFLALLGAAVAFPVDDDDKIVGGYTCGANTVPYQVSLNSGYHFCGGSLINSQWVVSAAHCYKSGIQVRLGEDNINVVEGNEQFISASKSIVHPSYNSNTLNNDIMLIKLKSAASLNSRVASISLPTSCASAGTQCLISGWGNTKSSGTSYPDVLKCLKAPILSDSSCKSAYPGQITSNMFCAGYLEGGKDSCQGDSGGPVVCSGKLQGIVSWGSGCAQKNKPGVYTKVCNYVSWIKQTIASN
- Experiment: Inhibition of bovine trypsin at 0.2 uM
# maps each entry to its inhibition
Report the figure in % without appending any unit label.

Field: example entries. Status: answers known.
Molecule | Measured Number
O=C1CC[C@@H](C(=O)N2CCN(C(=O)N3C(=O)[C@H](CC4CCNCC4)C3C(=O)O)CC2)N1 (single isomer, unassigned) | 69
O=C(O)C1[C@@H](CC2CCNCC2)C(=O)N1C(=O)N1CCN(C(=O)Cc2ccc3c(c2)OCO3)CC1 (single isomer, unassigned) | 19
O=C(O)C1[C@@H](CC2CCNCC2)C(=O)N1C(=O)N1CCN(C(=O)c2cc3ccccc3o2)CC1 (single isomer, unassigned) | 89
O=C(O)C1[C@@H](CC2CCNCC2)C(=O)N1C(=O)N1CCN(C(=O)c2ccc3ccccc3n2)CC1 (single isomer, unassigned) | 51
O=C(O)C1[C@@H](CC2CCNCC2)C(=O)N1C(=O)N1CCN(C(=O)Cc2ccc3ccccc3c2)CC1 (single isomer, unassigned) | 22

Continue with the molecule presented below.
Give Serine protease 1 (Bos taurus) (UniProt P00760) inhibition for O=C(O)C1[C@@H](CC2CCNCC2)C(=O)N1C(=O)N1CCN(C(=O)c2ccc(C3CCCCC3)cc2)CC1 (single isomer, unassigned)
76

###

- Measured Target: Tryptase (Homo sapiens, UniProt Q9BZJ3+Q15661+Q9NRR2)
- Experiment: Inhibitory activity against human tryptase
Value Type: IC50 (nM)
Report the figure in nM without appending any unit label.

Field: example entries. Status: answers known.
Molecule | IC50, nM
O=C(O)C1[C@@H](CC2CCNCC2)C(=O)N1C(=O)N1CCN(C(=O)Cc2ccc(-c3ccccc3)cc2)CC1 (single isomer, unassigned) | 5
O=C(O)C1[C@@H](CC2CCNCC2)C(=O)N1C(=O)N1CCN(C(=O)c2cc3ccccc3o2)CC1 (single isomer, unassigned) | 21
O=C(CCCC(=O)N1CCN(C(=O)N2C(=O)[C@H](CC3CCNCC3)C2C(=O)O)CC1)Nc1ccccc1 (single isomer, unassigned) | 12

What value of measured IC50 is listed for O=C(O)C1[C@@H](CC2CCNCC2)C(=O)N1C(=O)N1CCN(C(=O)c2cccc(Oc3ccccc3)c2)CC1 (single isomer, unassigned) ?
15

What value of measured IC50 is listed for O=C(O)C1[C@@H](CC2CCNCC2)C(=O)N1C(=O)N1CCN(C(=O)c2ccc(Oc3ccccc3)cc2)CC1 (single isomer, unassigned) ?
7

What value of measured IC50 is listed for Cc1cccc(CCC(=O)N2CCN(C(=O)N3C(=O)[C@H](CC4CCNCC4)C3C(=O)O)CC2)c1 (single isomer, unassigned) ?
13

What value of measured IC50 is listed for O=C(NCCCC(=O)N1CCN(C(=O)N2C(=O)[C@H](CC3CCNCC3)C2C(=O)O)CC1)OCc1ccccc1 (single isomer, unassigned) ?
6

What value of measured IC50 is listed for O=C(O)C1[C@@H](CC2CCNCC2)C(=O)N1C(=O)N1CCN(C(=O)Cc2ccc3c(c2)OCO3)CC1 (single isomer, unassigned) ?
55

What value of measured IC50 is listed for O=C(O)C1[C@@H](CC2CCNCC2)C(=O)N1C(=O)N1CCN(C(=O)CCCCCCc2ccccc2)CC1 (single isomer, unassigned) ?
5

What value of measured IC50 is listed for "N=C(N)N1CCC[C@H](C[C@H]2C(=O)N(C(=O)N3CCN(C(=O)CCCCCc4ccccc4)CC3)[C@@H]2C(=O)O)C1" ?
1.7
